Assay: plasma and brain exposure after single oral dose
Format: in vivo, Male CD-1 Mice
Details: male, CD-1, mouse, plasma, po, 10 mg/kg, PO 10 mg/kg (Group 3); 2 hr; read-out: Plasma Concentrations, Mean
Measurement Type: concentration at 2 h (ng/mL)
Answers are plain numbers, in ng/mL.

Query (molecule): `O=C(Cc1ccc(-c2ccc(N3CCOCC3)cc2)cn1)NCc1cccc(F)c1` ; field requested: concentration at 2 h 205

---

Experiment: plasma and brain exposure after single oral dose
Assay type: in vivo, Male CD-1 Mice
Conditions: male, CD-1, mouse, brain and plasma; oral 10 mg/kg; read-out: AUClast Brain/AUClast Plasma Ratio
Measurement Type: Kp
One number for each entry.

Query (compound): O=C(Cc1ccc(-c2ccc(N3CCOCC3)cc2)cn1)NCc1cccc(F)c1 [Compound 76] ; field requested: Kp 0.76
